Origin of measurements: the supplement of paper PMC10567573

B1: RAD51 (parent)
chain: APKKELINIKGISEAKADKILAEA

variants of: B1; experiment: protein stability index of a GFP-peptide fusion (GPS, HEK-293T) (PSI 1-6); higher = more stable; conditions: c terminus: a fixed tail appended;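 also: lentivirally expressed fusions sorted by FACS into six bins by GFP to DsRed ratio, PSI derived from sequencing read proportions per bin multiplied by bin number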
# label = bin(measured protein stability index), where bins are low bracket (below 4), middle bracket (4 to below 5), high bracket (5 or more)

{"columns": ["variant", "classification"],
 "data": [
  ["K3D", "middle bracket"],
  ["D18P", "high bracket"],
  ["A15W", "low bracket"]
]}

Switching to the query record.
Prompt line: Pick a category. Item: `I12Q`
Response line: high bracket
